Where these numbers come from: paper PMC9638933

- target system: T1, Kucore (Mycobacterium tuberculosis, UniProt P9WKD9 1-238)
- T1 sequence: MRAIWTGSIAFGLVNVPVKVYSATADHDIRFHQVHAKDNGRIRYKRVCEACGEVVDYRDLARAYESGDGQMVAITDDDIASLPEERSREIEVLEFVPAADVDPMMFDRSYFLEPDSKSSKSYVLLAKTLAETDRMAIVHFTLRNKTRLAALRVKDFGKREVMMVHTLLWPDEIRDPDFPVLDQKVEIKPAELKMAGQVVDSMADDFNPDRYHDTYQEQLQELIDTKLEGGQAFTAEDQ
- procedure summary: EMSA; 5 mM Mg2+; EMSA: 50 mM Tris-HCl pH 8.0, 50 mM NaCl, 1 mM DTT, 5 mM MgCl2, 4% glycerol, 0.025 mg/ml BSA, 10 nM DNA, 30 C 20 min; FP: 10 mM Tris-HCl pH 8, 10 mM NaCl, 10% glycerol, 1 mM TCEP, 50 nM DNA, 30 C; ternary EMSA: 20 mM Tris-HCl pH 8.0, 5 mM MgCl2, 5% glycerol, 37 C; bridging: 20 mM Tris-HCl pH 7.5, 50 mM KCl, 5 mM EDTA, 1 mM DTT, 5% glycerol, 40 ug/ml BSA, room temperature
- condition summary: protein: recombinant; tags: His (Ni-NTA purified; pMCSG7); chain copies: 2; label: 5' 6-FAM on strand 1; blunt
measure: pKd
// pKd is dimensionless: -log10 of concentration (M)

So, 40 bp dsDNA (dsDNA) DNA 1: CAGGGTAAGTGTGGAGGTGTAGGGAAGGGAATGTTGTCTG DNA 2: CAGACAACATTCCCTTCCCTACACCTCCACACTTACCCTG ? Its pKd was 7.15
